Read-out: Tumor necrosis factor receptor superfamily member 6 (Homo sapiens) (UniProt P25445)
Experiment: LTEA_HepaRG_FAS: Life Technologies and Expression Analysis (LTEA) Assay for Fas cell surface death receptor (FAS) using HepaRG (AID 2283447)
Settings: mRNA level, 48 h; actives raise or lower the signal
Activity calls are given as the source filed them. How the source made its calls: active means hit-call score of the fitted dose curve at least 0.9, where 1 is the maximum; inactive means score below 0.9.
Possible outcomes: True (active), False (inactive)

• CCC(C)c1ccccc1O (stereo not given) = False
• O=C(CCCN1CCC(O)(c2ccc(Cl)cc2)CC1)c1ccc(F)cc1 = True
• Cc1[nH]nc2c1N=C(c1ccccc1Cl)c1cc([N+](=O)[O-])ccc1N2 = True
• O=C1NS(=O)(=O)c2ccccc21 = False
• CCCCCCCCCCCCCCC = False

---

Biological target: Nuclear receptor subfamily 1 group I member 2 (Homo sapiens)
Experiment: ATG_PXR_TRANS: Attagene TRANS-FACTORIAL HepG2 Assay for human Pregnane X Receptor (PXR) (AID 2283008)
Records with an inconclusive call do not appear. Activity calls are given as the source filed them. Rule for the calls: active = hit-call score of the fitted dose curve at least 0.9, where 1 is the maximum; inconclusive = response in the unintended direction; inactive = score below 0.9.
Possible outcomes: active, inactive

* FC(F)(F)C(F)(F)C(F)(F)C(F)(F)I | inactive
* CN(CCO)S(=O)(=O)C(F)(F)C(F)(F)C(F)(F)C(F)(F)C(F)(F)C(F)(F)C(F)(F)C(F)(F)F | inactive
* COC(=O)CC(C(C)=O)C(=O)OC (stereo not given) | inactive
* CCCCCCCCCCCC(=O)O | inactive
* Nc1cc(Cl)c(-c2cc(Cl)c(N)cc2Cl)cc1Cl | active
* CCCCCCCCCCCC(=O)NCCCN(C)C | inactive
* Cc1ccc(C)c(S(=O)(=O)O)c1 | inactive
* CC(C)C=O | inactive
* CCCCCCc1ccc(N)cc1 | inactive
* CC1CNCC(C)O1 (stereo not given) | inactive
* NCc1cccc(CN)c1 | inactive
* O=C1c2ccc(O)c(O)c2C(=O)c2c(O)ccc(O)c21 | inactive
* CCCC=O | inactive
* Cc1ccc(N=Nc2c(O)ccc3ccccc23)c(C)c1 | active
* CCOC=O | inactive

---

Experiment: ATG_TA_CIS: Attagene CIS-FACTORIAL HepG2 Assay for human TA Basal Promoter (AID 2282964)
Settings: HepG2 Attagene CIS-factorial TA basal promoter reporter; actives raise or lower the signal
Activity calls are given as the source filed them. Rule for the calls: active = hit-call score of the fitted dose curve at least 0.9, where 1 is the maximum; inactive = score below 0.9.
Possible outcomes: class 1 (active), class 0 (inactive)

* CC(C)(O)C(=O)c1ccccc1 | class 0
* C=CC(F)(F)C(F)(F)C(F)(F)C(F)(F)F | class 0
* C/C=C/C(=O)C1=C(C)CCCC1(C)C | class 0
* CN(CCO)S(=O)(=O)C(F)(F)C(F)(F)C(F)(F)C(F)(F)C(F)(F)C(F)(F)C(F)(F)C(F)(F)F | class 0
* CC(C)(C)c1ccc(CCC=O)cc1 | class 0
* FCOC(C(F)(F)F)C(F)(F)F | class 0
* CCOC=O | class 0
* FC(F)(F)C(F)(F)C(F)(F)C(F)(F)I | class 0
* Cc1cccc2c1ccc1ccccc12 | class 0
* O=C(CCCN1CCC(O)(c2ccc(Cl)cc2)CC1)c1ccc(F)cc1 | class 1
* C[C@]12CC[C@@H]3c4ccc(O)cc4CC[C@H]3[C@@H]1C[C@@H](O)[C@@H]2O | class 0
* CS(=O)(=O)c1ccc([C@@H](CC2CCCC2)C(=O)Nc2cnccn2)cc1Cl | class 1
* CCCCCCCCCCCC | class 0
* Nc1cc(Cl)c(-c2cc(Cl)c(N)cc2Cl)cc1Cl | class 0
* Cc1ccccc1OCC(=O)O | class 0
* CC(C)C=O | class 0
* COc1ccccc1NC(=O)c1cc2ccccc2cc1O | class 0
* O=C(c1ccccc1)c1ccccc1 | class 0
* Cc1[nH]nc2c1N=C(c1ccccc1Cl)c1cc([N+](=O)[O-])ccc1N2 | class 1
* O=C1OC2(c3ccccc31)c1cc(I)c(O)c(I)c1Oc1c2cc(I)c(O)c1I | class 0
* O=c1cc(-c2ccccc2)oc2ccc3ccccc3c12 | class 0
* COC(=O)CC(C(C)=O)C(=O)OC (configuration not stated) | class 0
* O=C1c2ccccc2C(=O)c2c(O)c(O)cc(O)c21 | class 0
* O=P(O)(O)CCC(F)(F)C(F)(F)C(F)(F)C(F)(F)C(F)(F)C(F)(F)F | class 0
* O=C(F)C(F)(F)C(F)(F)C(F)(F)C(=O)F | class 0
* CC1=CC(=O)c2ccccc2C1=O | class 0
* Clc1ccc(Nc2nnc(Cc3ccncc3)c3ccccc23)cc1 | class 1

---

Read-out: CD40, CD40 (gene 958)
Assay: BSK_IMphg_CD40: BioMAP Diversity Plus: IMphg Assay for CD40 Biomarker Activity (AID 2284288)
Settings: primary human endothelial cells with macrophages
The source made the active and inactive calls. Rule for the calls: active = hit-call score of the fitted dose curve at least 0.9, where 1 is the maximum; inactive = score below 0.9.
Possible outcomes: 1 (active), 0 (inactive)

* O=P(O)(O)CCC(F)(F)C(F)(F)C(F)(F)C(F)(F)C(F)(F)C(F)(F)F | 0
* C=CC(=O)OCCC(F)(F)C(F)(F)C(F)(F)C(F)(F)C(F)(F)C(F)(F)C(F)(F)C(F)(F)F | 0
* O=C(O)CCC(F)(F)C(F)(F)C(F)(F)C(F)(F)C(F)(F)F | 0
* O=C(CC(=O)C(F)(F)C(F)(F)C(F)(F)F)c1cccs1 | 0
* CN(CCO)S(=O)(=O)C(F)(F)C(F)(F)C(F)(F)C(F)(F)C(F)(F)C(F)(F)C(F)(F)C(F)(F)F | 0
* OCC(F)(F)C(F)(F)C(F)(F)C(F)(F)C(F)(F)C(F)(F)C(F)(F)C(F)(F)C(F)(F)C(F)(F)C(F)(F)F | 1

---

Test: CCTE_Shafer_MEA_dev_network_spike_duration_std: CCTE's Neural Network Formation Assay for Standard Deviation of Network Spike Duration, Shafer Lab (AID 2284052);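 further: area under curve of spike duration SD across recording days 5 to 12; hits are decreases in network spike duration SD versus DMSO vehicle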
Active and inactive are the calls of the source. Rule for the calls: active = hit-call score of the fitted dose curve at least 0.9, where 1 is the maximum; inactive = score below 0.9.
Possible outcomes: active, inactive

* OCC(F)(F)C(F)(F)C(F)(F)C(F)(F)C(F)(F)C(F)(F)C(F)(F)C(F)(F)C(F)(F)C(F)(F)C(F)(F)F | inactive
* C=CC(F)(F)C(F)(F)C(F)(F)C(F)(F)F | inactive
* CC(=O)Nc1ccc(O)cc1 | inactive
* COC(=O)C(F)(F)C(F)(F)C(F)(F)C(F)(F)C(F)(F)F | inactive
* O=C(C=C(O)C(F)(F)F)C(F)(F)F | inactive
* O=CC(F)(F)C(F)(F)C(F)(F)F | inactive
* CN(Cc1cnc2nc(N)nc(N)c2n1)c1ccc(C(=O)N[C@@H](CCC(=O)O)C(=O)O)cc1 | active
* COC(=O)C(F)(F)C(F)(F)C(F)(F)F | inactive
* O=C(F)C(F)(F)C(F)(F)C(F)(F)C(F)F | inactive
* Nc1ccn([C@@H]2O[C@H](CO)[C@@H](O)C2O)c(=O)n1 (some centres undefined) | active
* O=P(O)(O)CCC(F)(F)C(F)(F)C(F)(F)C(F)(F)C(F)(F)C(F)(F)C(F)(F)C(F)(F)F | inactive
* O=C(OC(=O)C(F)(F)C(F)(F)F)C(F)(F)C(F)(F)F | inactive
* O=C1NS(=O)(=O)c2ccccc21 | inactive
* CN(C)CCOC(c1ccccc1)c1ccccc1 | inactive
* O=CC(F)(F)C(F)(F)C(F)(F)C(F)F | inactive
* NC(C(F)(F)F)C(F)(F)F | inactive
* FCOC(C(F)(F)F)C(F)(F)F | inactive
* O=C(F)C(F)(F)C(F)(F)C(F)(F)C(=O)F | inactive
* O=C(CC(=O)C(F)(F)C(F)(F)C(F)(F)F)c1cccs1 | inactive

---

Target: Nuclear respiratory factor 1 (Homo sapiens) (UniProt Q16656)
Sequence (Q16656 whole entry, looked up): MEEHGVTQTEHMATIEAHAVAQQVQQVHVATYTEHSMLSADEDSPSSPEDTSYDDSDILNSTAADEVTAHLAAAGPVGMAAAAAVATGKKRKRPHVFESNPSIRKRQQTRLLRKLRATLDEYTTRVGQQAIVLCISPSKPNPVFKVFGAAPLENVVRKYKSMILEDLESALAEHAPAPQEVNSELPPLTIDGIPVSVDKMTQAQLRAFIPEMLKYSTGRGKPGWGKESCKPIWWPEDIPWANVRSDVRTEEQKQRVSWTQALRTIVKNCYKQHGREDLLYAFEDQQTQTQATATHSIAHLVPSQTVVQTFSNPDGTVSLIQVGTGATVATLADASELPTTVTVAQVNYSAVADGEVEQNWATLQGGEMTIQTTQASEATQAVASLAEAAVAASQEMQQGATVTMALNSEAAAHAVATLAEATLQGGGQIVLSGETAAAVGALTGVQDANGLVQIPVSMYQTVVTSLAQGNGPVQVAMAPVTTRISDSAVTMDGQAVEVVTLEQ
Experiment: ATG_NRF1_CIS: Attagene CIS-FACTORIAL HepG2 Assay for human Nuclear Respiratory Factor 1 (NRF1) Orphan Gene (AID 2282987)
Conditions: HepG2 NRF1 cis-element reporter, Attagene multiplex; actives raise or lower the signal
Experimental: ATG_CIS is a cell-based, multiplexed-readout assay that uses HepG2, a human liver cell line, with measurements taken at 24 hours after chemical dosing in a 24-well plate.ATG_NRF1_CIS is one of 52 assay component(s) measured or calculated from the ATG_CIS assay. […] This assay endpoint, ATG_NRF1_CIS, was analyzed with bidirectional fitting relative to DMSO as the negative control and baseline of activity. […]
Active and inactive are the calls of the source. How the source made its calls: active means hit-call score of the fitted dose curve at least 0.9, where 1 is the maximum; inactive means score below 0.9.
Endpoint name: AC50

• Cc1ccc(S(=O)(=O)O)cc1 = inactive
• CCCCCCOC(=O)c1ccc(O)cc1 = 58.5 µM (active)
• O=C1OC2(c3ccccc31)c1cc(I)c(O)c(I)c1Oc1c2cc(I)c(O)c1I = inactive
• CCCCCCCCCCCCOC(=O)c1cc(O)c(O)c(O)c1 = inactive
• Cc1cc(=O)oc2cc(O)ccc12 = inactive
• Cc1[nH]nc2c1N=C(c1ccccc1Cl)c1cc([N+](=O)[O-])ccc1N2 = 1.16 µM (active)
• CCCCCCCCC1CCC(=O)O1 (stereo not drawn) = inactive
• COc1ccccc1NC(=O)c1cc2ccccc2cc1O = inactive
• O=C1OC(=O)C(F)(F)C1(F)F = inactive
• C=Cc1ccc(O)c(OC)c1 = inactive
• COC(=O)CC(C(C)=O)C(=O)OC (stereo not drawn) = inactive
• C[C@]12CC[C@@H]3c4ccc(O)cc4CC[C@H]3[C@@H]1C[C@@H](O)[C@@H]2O = inactive
• Nc1ccn([C@@H]2O[C@H](CO)[C@@H](O)C2O)c(=O)n1 (stereo partly drawn) = inactive

These measurements were taken from PubChem BioAssay (EPA / NIEHS).
